B1: glmS ribozyme (parent)
chain: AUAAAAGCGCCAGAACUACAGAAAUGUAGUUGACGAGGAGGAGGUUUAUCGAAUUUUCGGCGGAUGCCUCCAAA

- Variants of: B1
- testSummary: self-cleavage kobs at 2500 uM GlcN6P; higher = faster cleavage; RNA array
- assayContext: with glucosamine-6-phosphate
Variants at the floor of the assay were thinned out.
Classify by self-cleavage kobs at 2500 uM GlcN6P. Ranges: lower segment: < 0.0001 s⁻¹; middle segment: ≥ 0.0001 s⁻¹ and < 0.0008 s⁻¹; upper segment: ≥ 0.0008 s⁻¹

mutantDesignation	className
G32C G35U G59A	lower segment
G35C G37C U54A G66U	lower segment
U30G A39G G41U A48G U69C	lower segment
A14U A36U U69G	middle segment
C16U A39U G66U	upper segment
U30A U49C	lower segment
U30C U47A	middle segment
A33C G43C	lower segment
G32A G44U U49A G63A	lower segment
C11U G40C	lower segment
G7A C11G A15C C50A U54C	lower segment
G37A C71A	middle segment
G40U G44A C50G C71G	lower segment
A14U A42G	upper segment
U31A U46C	middle segment
G7U A64G G66A	lower segment
U56G C58U	lower segment
U31C G66A	upper segment
U55G U69A	middle segment
G35U G41A A52U C71U	lower segment
G41U A53C	lower segment
C8G A15U U55C	lower segment
A6G G29C G51A	lower segment
A14G G29A G32U	middle segment
G41C C61U	lower segment
C11U G32C C50G C61G	middle segment
A14U C67A	upper segment
U56A G59C	lower segment
A6U A15G	middle segment
A12U C50G G59U U69C	lower segment
U54A U65A	upper segment
A39C C71A	lower segment
G32C U56G	lower segment
C11U	upper segment
G29U U47C	middle segment
G32C G51C C68U	lower segment
G7U A53U U65G	lower segment
A12U G35A G40U	lower segment
G7U U49A U65G	lower segment
G35C G41A G44A G66A	lower segment
U31C U54A	upper segment
G37A G41A A48G	lower segment
A14U G43U G51U	lower segment
A39U C61U G62U	lower segment
A12G A33C C50A C68G	middle segment
